# SYSTEM_UNDER_TEST: visual cycle isomerase (Bovine RPE microsome membranes) (Bos taurus, UniProt Q28175)
# Construct: Bovine Retinal Pigment Epithelium (RPE) microsome membranes were the source of a visual cycle isomerase; from tissue; host or cells: bovine retinal pigment epithelium microsome membranes
# ASSAY_INFO: In vitro isomerase inhibition assay, bovine RPE microsome membranes
# Type: biochemical
# CONDITION_DESCRIPTION: bovine RPE microsomes; 11-cis retinol formation
REPORTED_ENDPOINT: IC50

Some solved cases for reference:
CC(C)CC#Cc1cccc(OCCN)c1
≤ 1 µM
CC(C)CC(O)(C#Cc1cccc(CCCN)c1)CC(C)C
≤ 10 µM
NCCOc1cccc(C#Cc2ccccc2)c1
≤ 10 µM

Could you now consider this next molecule?
Record CCCC#Cc1cccc(CCCN)c1 / visual cycle isomerase (Bovine RPE microsome membranes) (Bos taurus, UniProt Q28175), IC50 recorded as ≤ 1 µM

* * *

# SYSTEM_UNDER_TEST: visual cycle isomerase (Bovine RPE microsome membranes) (Bos taurus, UniProt Q28175)
# Construct: Bovine Retinal Pigment Epithelium (RPE) microsome membranes were the source of a visual cycle isomerase; from tissue; host or cells: bovine retinal pigment epithelium microsome membranes
# Sequence (Q28175 2-533 limits assumed): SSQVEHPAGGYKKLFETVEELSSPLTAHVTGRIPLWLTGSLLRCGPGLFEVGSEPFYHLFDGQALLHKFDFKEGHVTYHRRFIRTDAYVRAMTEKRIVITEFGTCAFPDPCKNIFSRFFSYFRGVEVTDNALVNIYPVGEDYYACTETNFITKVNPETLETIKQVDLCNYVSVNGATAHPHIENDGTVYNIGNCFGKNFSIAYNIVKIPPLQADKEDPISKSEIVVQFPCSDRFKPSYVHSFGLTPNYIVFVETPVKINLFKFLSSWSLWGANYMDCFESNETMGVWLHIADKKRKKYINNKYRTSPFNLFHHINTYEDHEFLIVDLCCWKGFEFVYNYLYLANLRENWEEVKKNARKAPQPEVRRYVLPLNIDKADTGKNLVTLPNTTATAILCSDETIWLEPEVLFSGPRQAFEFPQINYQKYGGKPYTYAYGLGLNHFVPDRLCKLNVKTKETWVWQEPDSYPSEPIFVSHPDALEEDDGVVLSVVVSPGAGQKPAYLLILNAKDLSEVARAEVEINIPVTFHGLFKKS
# ASSAY_INFO: In vitro isomerase inhibition assay, bovine RPE microsome membranes
# Format: biochemical
# CONDITION_DESCRIPTION: bovine RPE microsomes; 11-cis retinol formation
REPORTED_ENDPOINT: IC50

A selection of reference data follows.
NCCCc1cccc(C#Cc2cccc3ccccc23)c1
≤ 100 µM
NCCCc1cccc(C#Cc2cccs2)c1
≤ 10 µM
NCCCc1cccc(C#Cc2cccc(-c3ccccc3)c2)c1
≤ 100 µM

The measured IC50 that NCCCc1cccc(C#CCCO)c1 showed for visual cycle isomerase (Bovine RPE microsome membranes) (Bos taurus, UniProt Q28175) is ≤ 100 µM

Field IC50 (visual cycle isomerase (Bovine RPE microsome membranes) (Bos taurus, UniProt Q28175)), entry COc1ccccc1C#Cc1cccc(C(O)CCN)c1 (centres unmarked) : ≤ 1 µM

* * *

# SYSTEM_UNDER_TEST: isomerase (Mus musculus, UniProt Q91ZQ5)
# Construct: The recovery of 11-cis-retinal after bleaching can be used to estimate the activity of isomerase in vivo; from tissue; host or cells: eyes of living CD-1 and Balb/c male mice
# Sequence (Q91ZQ5 whole entry): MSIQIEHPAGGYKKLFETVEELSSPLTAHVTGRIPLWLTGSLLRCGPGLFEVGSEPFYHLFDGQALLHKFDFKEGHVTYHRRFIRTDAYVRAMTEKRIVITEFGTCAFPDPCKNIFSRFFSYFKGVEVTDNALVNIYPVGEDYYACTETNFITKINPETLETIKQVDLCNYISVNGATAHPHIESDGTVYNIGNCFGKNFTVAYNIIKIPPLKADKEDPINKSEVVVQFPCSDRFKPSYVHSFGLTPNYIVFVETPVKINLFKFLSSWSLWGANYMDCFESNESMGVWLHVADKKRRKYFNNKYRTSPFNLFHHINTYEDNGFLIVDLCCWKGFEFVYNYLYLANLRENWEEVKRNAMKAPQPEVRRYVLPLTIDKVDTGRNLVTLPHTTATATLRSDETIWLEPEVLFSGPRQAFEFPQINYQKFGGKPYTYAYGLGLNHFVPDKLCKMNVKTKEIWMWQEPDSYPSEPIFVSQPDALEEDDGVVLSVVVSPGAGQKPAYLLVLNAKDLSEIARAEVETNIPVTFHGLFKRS
# ASSAY_INFO: In vivo murine isomerase assay (recovery of 11-cis-retinal after photobleaching)
# Design: species or system mice
# CONDITION_DESCRIPTION: mouse, po, read-out: ED50 (dose of compound that gives 50% inhibition of 11-cis retinal (oxime) recovery); estimated; male Balb/c mice, HCl salts dosed orally in mg/kg, photobleached 4 hours after dosing
REPORTED_ENDPOINT: ED50 (mg/kg)

CCCC(O)(C#Cc1cccc([C@H](O)CCN)c1)CCC
0.2

(1) CCCC(O)(C#Cc1cccc(CCCN)c1)CCC
(2) CCCC(O)(C#Cc1cccc(C(O)CCN)c1)CCC (centres unmarked)
Query: // which entry has the larger ED50 value, 1 or 2 ? Write the label of whichever entry you select.
Result: 1
(1: 0.69 mg/kg, 2: 0.33 mg/kg)

(a) CCCC(O)(C#Cc1cccc(OCCN)c1)CCC
(b) CCCC(O)(C#Cc1cccc([C@@H](O)CCN)c1)CCC
Query: Would you kindly point out which of a and b has the smaller ED50 figure? Please indicate the selected item by its label.
Result: b
